- EXPERIMENT_SUMMARY: protease stability score; higher = more stable; yeast display proteolysis, trypsin and chymotrypsin;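 note: relative to predicted unfolded state with 0 unfolded-like and 1 meaning tenfold more protease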
ASSAY_ENDPOINT: protease stability score
Enter the number alone.

DEERELYKRHWDRLNRAIHTGDEEEVRRLADPDYKIRIGDKTLHGREDIKKFLEHIRISVESFEIKDMHDIDGVIEVDGKVELRLVVDGRTFRIETRVVYYILKVNGRWLMHSEIYH : 0.82
DEEDEITDRLAKLLQHAYHTGDWKLWLNLADPHVRVDFNGVEIHGREEITDWFRKHYRDLGVTRFEVHVHHIHNIGDKIVQETHLLVNGRTFRTEVTIIVINGRVKSEHVNLR : 0.848
DEEHRHAEEILKDLQKALITGDEHNMMNLLDPHVRVDFDGVEIIGRELWVELFRTLKKELGITRFDIHLHTHDMKIFDGRVTLDTRLHLHYNGRTEERRVIIYVTKVNGRWHIESMEIK : 1.82
SEDEETSEELARRFSKAMKTGDFDHLVQQLDPNVRIDINGKEMIGRERFEEDMRRLNLSNIHFITRDIKVEIQGEMLHVRIDGHTRINGKDVKTHDIWIFEKIDGRWRLKEWIVHEE : 0.913

Q. // protease stability score lookup, key: "DEHEEEAIRMLRLIFFLLHTGDWEVMHELFDPHARFTINGRRIHGMEEWLKFLREIRIEDSDIHVKRIDIQGDKMRIKGVVHLEGNVNGRREHTELHIDVHLEKVNGRWIIRLIEFK"
A. 2.35

###

- EXPERIMENT_SUMMARY: protease stability score; higher = more stable; yeast display proteolysis, trypsin and chymotrypsin;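 note: relative to predicted unfolded state with 0 unfolded-like and 1 meaning tenfold more protease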
ASSAY_ENDPOINT: protease stability score
Enter the number alone.

DEKTEQSREIIELLLKALQTGDEDTLTELLDPHVKIHIGDKDYHGREEVSRLLQEFWDRFKNARIEIHDYRDINGRVHVDLRHVVGDKTYTSKWNILKVNGRWYIEQIHVH : 2.07
SEDDEAVSHALHLLSEVLLTGDERTWKRLADPNVKLEFNGREFHGMEEWKRMLDHIRIDHVKIELERSDSIGDKMHTHGRLIVHTTINGVELDRITDVRFIIEKVDGRWKLTSLHIH : 1.29
DEERQRAHKWMHDWIKAYLTGDEEHQNQMLDPNMRIEYGDKTHHGRDILIEIFREELRQVDHIEIRIRHIDNFEGRVRTDGELHVKINGRREHYDIILEYDVVNGKLKIERWDIR : 1.45

Q. // protease stability score lookup, key: "DEDEEFWKELLRLFNEALITGDEDLLSHYADPNTRIRDENHKIHGRERYSRLMVKLGIDHVHLHSFTIIDGVAHIHLEWHQGDKTLDVRSYSRKFNGRWFLTHVRIK"
A. 1.05

Q. Okay, and "DEDFRDAKHMWELYLELIHTGDEERLRKLMDPNVRVEVGDKELHGRHHYIKWVREMRMRIEDVRIRTVRNINGVVHIHGELRGEYVYGDKRVHFETEVELVLLKVNGRWKIHEEHIH" ?
A. 1.75

Q. Okay, and "DEDHKRVREMTDILIELLVTGNEDLLLKLMDPHARERIGDWHSHGRESFVKLLQDLLERIKNVRIEIKDMRIRIYNGVAHSHIDGNNIYNGREIKALWILIIEKINGRWIVHSIELETE" ?
A. 1.45

Q. Okay, and "DEDRERSEEIAKLILRSWLTGDERLLEELFDPHARVHINGKEFHGMEKFTEFSRHIRMDRVIIHDVKLIGDKMHIEQEIIITFDGRHLHVRSIIIVLKVNGQWVSRSLEIH" ?
A. 1.16

Q. Okay, and "DEEEELIKHHLELHLEAVKTGDEEHLHRNMDPNVRLHVNGQDRHGREDVSTLLREIRLKDFKIHDVDIQGNKMRFDGFILGEINGREHNVHTTIYAEKVDGRWLIRHFEIR" ?
A. 1.04

###

- EXPERIMENT_SUMMARY: protease stability score; higher = more stable; yeast display proteolysis, trypsin and chymotrypsin;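 note: relative to predicted unfolded state with 0 unfolded-like and 1 meaning tenfold more protease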
Decision: protease stability score compared against 1; not below it gives Met, below it gives Not met.

DEEHREAREAVEDDLRELITGNWDMLRRNLDPRMRLNIDGQDIHGRESVHKRWVELMEELGIDHLELHRVDVIDGRIHTDGHERVDGKHIKVLIVAVKINGRWIIKRLHVH : Not met
SEEKRDSHQAIHLFIKNRVTGNWKDLYKNVDPHARLEIGDKHFHGRELFVRLMLELGVDHFDIESVDIQGDFIHIKGQIDVNGRTLDVELVAWKYNGRWYEHSVIIK : Met
SEDEREFEEFVRFFFKMMVTGDEDDLIRLLDPHAKFEINGKILHGWRHLLEEIREMGIKHWKIRDIKVQGEKVENELELEVGEKRFHIRLIATKVNGKWHVKEFSIHEI : Met
HEHEKWMEELVRRLKHHLRTGDFETWKELADPNAKVQLVVGDKHVESIGREEMEKWFHDHMMRLGIERFEFNIQSIYVQGEKIHLLGRLHFNGQDERAEIILVVVNGRIKQIHFHLH : Met
SEEEELDRRITDLIVHARKTGDEEMWQRYADPHVRLFWFQGDYLLMIVGREDASKWMRHLLEELGIKHIEFKHIDIFDGRSHIDSRVKVNGKERETRHQFVVVNGRITEVREKID : Not met
DEDVKLALHIIHLFIRALSTGNEELVKTYADPHWRLEIGDKILHGMDEWKEDLKELRIYYHHVTFRDYEIIDGRIIIHTELDGRLEVGDYEQRIRTRTHVFVDKINGRWDITHVEVR : Met

Q. Is protease stability score at least 1? Consider "TEDEEDSLFAFDEWVKSVETGDEHTLSKLADPHTRLNVNGVDQHGRENMSHMMLRLANRYDHIEIRLHSWRLINGRIEVDSRVINVVGDKRIESNFHMFILKVNGRWLMHSVHFE"
A. Not met

Q. Okay, and "DEMEKMSRDVHKQLKNAFETGDESEMERLLDPHAKIDIGDKRLHGMEEYSHLLHEWRIKDLHIKDIQVQGDKAISDTHRYLEIGDKEYEREVIVYVIKVDGRWIIHSLVFR" ?
A. Not met

Q. Okay, and "DETNKTLKEVFRELVHSLFTGDEERLTELADPHARFHQGEKELHGREEISKEMSRMIERADHVKIILTHMEVQGDKIIIEGHLEIRVDGRRIDVSTTLILHKVNGRWFITEIHII" ?
A. Not met

Q. Okay, and "DEKEEVLEKLDRLVMEAMETGDWELITKNFDPNTRITINGRELIGRAEWHRFLEEMRHSIKDYRIRSKREYDGRIEVDTESHFIVNIDGKRIEYETRTHVIMTKIDGKWLFTSVEVR" ?
A. Met

Q. Okay, and "SEKEEQAFRLFKDIVRSMKTGDEDRLHELFDPNVRMDFNGVESHGRELALEVIRIVWREIRIKNIEVHHIEVIGNYVRIDSRLDGRYDGRRIILEMHVQLVKVDGQWIVHNIEIK" ?
A. Met

Q. Okay, and "DHEDELKMHLFEHLLEVLMTGDEHRKTRLLDPDARSHLDINGQKIDVMGWEEVTKLDRKLHEEIRFHEIHIREWELQGDKIFVVGETRIEINGVEFRTEVRIIVVVVNGRLKALFFHVH" ?
A. Not met

Q. Okay, and "SELNHSVRRAIEIFERVSKTGDEREIRDLADPNVKLDFDGREHHGWEWFVRFMKEIRIKDHRIRDVELIGEFVIIHGELEMEINGVDIRTEVEFYVFKINGKWYLKRLIIR" ?
A. Met

Q. Okay, and "DEEKEEHEKMIERWLRALETGDEHLLRELIDPNVRLDINGRRTHGREDVLRLFVDLGIDHHDIHDVKIIDGRIDMDTRINVNGREIKIRVIARKFDGRWIVESFRVE" ?
A. Met

Q. Okay, and "GEMEKLLFKIFEEWMKLRKTGDEDVIAHLADPDYRWDVNGVDLHGMEHVKEFTEEFLRHLGFDHQEYRIRRFDHDGNKLRADTEVRIVVNGVDITHRTHIIIVQFNGKVKSVKERIR" ?
A. Not met

Q. Okay, and "DEDEEDARIAWEILVRVWKTGDEEELMKMADPNTRLEINGREFHGREHYLHMSRELRVERVDVRRLEVFDGKVHLEGESHMEVNGKRRTHKVVHIMRKIDGRWHIEYFIVH" ?
A. Met

Q. Okay, and "DEERRRAKKFLEQFVRNVETGDEELHYHLADPHMKVKIGDKEFHGMEHWIEWFHRFGFDHMEIELKDIRVQGDKAHIDGRLHVDYNGREHSTNVELVVRKVNGRWRLHELRVE" ?
A. Met

###

- EXPERIMENT_SUMMARY: protease stability score; higher = more stable; yeast display proteolysis, trypsin and chymotrypsin;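 note: relative to predicted unfolded state with 0 unfolded-like and 1 meaning tenfold more protease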
ASSAY_ENDPOINT: protease stability score
Enter the number alone.

Worked examples, 5 sequences total:
SEDEEESRHAYQKLVRDLETGDEKKTEDNVDPNVRLEQGDKTLHGRERFVHWYSRLGAKHFHIHSFEAQGDKIHIDGTINVNGVTHRVEYISLKVNGRWLMHQVIIR : 0.662
SEEEEIAERFKKLMFEATHTGDWHTFMRLADPHVRVDINGKERHGREHWVEHERRLGIDHTDIRIRREREINGVMHIDSQLILHFNGVTLTLDHKLILKKVDGKWILHELKVD : -0.054
DEDHEISKRALEQWIHDLHTGDEDTLRKFADPNARMEVDGVEHHGMELAMRILLRIDVTEIRIKDMRIVDGRVEIDGEVRDKVNGKTRESRVHLYVLKVDGRWVMESITIQ : 0.476
GENEQLIEEAVKMFMDIHHTGDWRDVHHLLDPHMRLDVNGVDYHGRDLWVRIAKEISEHARTEVRIRHLEIQGDKVIVHGQIILRIGDKTHVIDTRHIIIKINGRWKLHSVDIH : 1.32
DDENKQMEEAIWIWKYMVETGDERINHEFADPHARVDINGKEHHGREEIERFLIEFSEKVKNLRVEIEDFRSINGRVDVILRLTVNGKRVETRVHAIKVDGKWLIKEVRFH : 0.624

Pending sequence:
Q. // protease stability score lookup, key: "DEDDEDADNAIRLIVHSMLTGNEDFFSRLLDPNVRLDYNGVEFIGREDVVRFWNQMRFEFRVEVRRTSSQGDKVNWDIRLRIILHFNGKRHDRLHDTVLISRKYNGKWHVEQIEVR"
A. 1.54

Hello, the source for this data is the NTF2 design screens of Basanta et al. (2020), in case you need it.
